System: MCF7
Assay: Cytotoxicity against human MCF7 cells assessed as growth inhibition after 72 hrs by calcein AM staining-based fluoroscence assay
Format: functional, cell-based
Conditions: MCF7, 72 h
Attribute: IC50
Numbers only here, please. The scale is nM.

-- ask Reported IC50 for NC1CCC(Nc2nc(NCc3ccc(-c4ccco4)nc3)c3ncn(C4CCCC4)c3n2)CC1 (centres undefined) : what is it?
-- reply 33

-- ask Reported IC50 for NC1CCC(Nc2nc(NCc3ccc(Br)cc3)c3ncn(C4CCCC4)c3n2)CC1 (centres undefined) : what is it?
-- reply 850

-- ask Reported IC50 for Nc1ccccc1CNc1nc(NC2CCC(N)CC2)nc2c1ncn2C1CCCC1 (centres undefined) : what is it?
-- reply 2330

-- ask Reported IC50 for COc1ccccc1-c1ccc(CNc2nc(NC3CCC(N)CC3)nc3c2ncn3C2CCCC2)cn1 (centres undefined) : what is it?
-- reply 82

-- ask Reported IC50 for CC(C)(O)CNc1nc(NCc2ccc(-c3ccco3)nc2)c2ncn(C3CCCC3)c2n1 : what is it?
-- reply 1300

-- ask Reported IC50 for Nc1ccccc1-c1ccc(CNc2nc(NC3CCC(N)CC3)nc3c2ncn3C2CCCC2)cn1 (centres undefined) : what is it?
-- reply 117

-- ask Reported IC50 for NC1CCC(Nc2nc(NCc3ccc(-c4ccccc4)nc3)c3ncn(C4CCCC4)c3n2)CC1 (centres undefined) : what is it?
-- reply 483

-- ask Reported IC50 for NC1CCC(Nc2nc(NCc3ccc(-c4cccc(F)c4)cc3)c3ncn(C4CCCC4)c3n2)CC1 (centres undefined) : what is it?
-- reply 293

-- ask Reported IC50 for NC1CCC(Nc2nc(NCc3ccc(-c4ccoc4)nc3)c3ncn(C4CCCC4)c3n2)CC1 (centres undefined) : what is it?
-- reply 32

###

Biological target: CDK9/cyclin T1 (Homo sapiens)
Sequence (O60563 whole entry): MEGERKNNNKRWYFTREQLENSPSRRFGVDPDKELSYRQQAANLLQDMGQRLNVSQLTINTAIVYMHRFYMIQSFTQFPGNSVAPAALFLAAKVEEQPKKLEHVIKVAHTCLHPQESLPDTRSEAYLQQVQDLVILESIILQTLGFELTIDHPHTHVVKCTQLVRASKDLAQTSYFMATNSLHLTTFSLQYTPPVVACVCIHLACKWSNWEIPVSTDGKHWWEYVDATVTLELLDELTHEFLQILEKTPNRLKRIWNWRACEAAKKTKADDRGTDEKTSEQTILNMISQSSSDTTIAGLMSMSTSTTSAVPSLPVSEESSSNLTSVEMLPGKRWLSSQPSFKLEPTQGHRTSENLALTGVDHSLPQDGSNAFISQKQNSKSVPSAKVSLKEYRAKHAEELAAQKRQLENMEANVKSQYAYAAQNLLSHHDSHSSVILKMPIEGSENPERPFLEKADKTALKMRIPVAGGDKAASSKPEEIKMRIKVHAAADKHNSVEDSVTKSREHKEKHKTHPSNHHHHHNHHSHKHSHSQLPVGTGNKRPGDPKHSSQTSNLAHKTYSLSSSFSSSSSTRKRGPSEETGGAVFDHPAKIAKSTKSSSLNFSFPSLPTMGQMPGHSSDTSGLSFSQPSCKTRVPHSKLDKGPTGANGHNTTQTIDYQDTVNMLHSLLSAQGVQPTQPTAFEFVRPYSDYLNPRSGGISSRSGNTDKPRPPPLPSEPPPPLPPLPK
Sequence (P50750 whole entry): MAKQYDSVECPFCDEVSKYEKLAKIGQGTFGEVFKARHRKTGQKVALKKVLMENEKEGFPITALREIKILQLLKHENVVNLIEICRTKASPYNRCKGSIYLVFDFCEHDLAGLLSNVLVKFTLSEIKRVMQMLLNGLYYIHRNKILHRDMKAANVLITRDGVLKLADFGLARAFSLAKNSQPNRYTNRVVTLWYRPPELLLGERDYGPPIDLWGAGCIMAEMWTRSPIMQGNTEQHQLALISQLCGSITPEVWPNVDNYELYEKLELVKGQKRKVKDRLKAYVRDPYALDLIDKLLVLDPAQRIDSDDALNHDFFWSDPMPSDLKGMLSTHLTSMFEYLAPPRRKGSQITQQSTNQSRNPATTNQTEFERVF
Experiment: Inhibition of CDK9/Cyclin T1 (unknown origin) using (YSPTSPS)2KK peptide as substrate
Assay Readout: IC50 (nM)
Numbers only here, please. The scale is nM.

-- ask Reported IC50 for NC1CCC(Nc2nc(NCc3ccc(-c4ccccc4O)nc3)c3ncn(C4CCCC4)c3n2)CC1 (stereo unspecified) : what is it?
-- reply 10.9

###

Tested on: G-361
Assay: Induction of apoptosis in human G361 cells assessed as induction of PARP-1 clevage at 300 nM after 24 hrs by immunoblotting analysis
Assay type: functional, cell-based
Calls of active or inactive are those of the source. The calls are words filed in the database; no cut-off is given here.
Assay Readout: Activity

For orientation, consider the following solved cases.
- Compound: "NC1CCC(Nc2nc(NCc3ccc(-c4ccco4)nc3)c3ncn(C4CCCC4)c3n2)CC1 (configuration not stated)"
  Activity: "Active"
- Compound: "NC1CCC(Nc2nc(NCc3ccc(-n4cccn4)cc3)c3ncn(C4CCCC4)c3n2)CC1 (configuration not stated)"
  Activity: "Active"
- Compound: "NC1CCC(Nc2nc(NCc3ccc(-c4ccsc4)nc3)c3ncn(C4CCCC4)c3n2)CC1 (configuration not stated)"
  Activity: "Active"
- Compound: "NC1CCC(Nc2nc(NCc3ccc(-c4ccoc4)nc3)c3ncn(C4CCCC4)c3n2)CC1 (configuration not stated)"
  Activity: "Active"
- Compound: "NC1CCC(Nc2nc(NCc3ccc(-c4cccs4)nc3)c3ncn(C4CCCC4)c3n2)CC1 (configuration not stated)"
  Activity: "Active"

-- ask Reported Activity for NC1CCC(Nc2nc(NCc3ccc(-c4cccc(F)c4)nc3)c3ncn(C4CCCC4)c3n2)CC1 (configuration not stated) : what is it?
-- reply Active

-- ask Reported Activity for NC1CCC(Nc2nc(NCc3ccc(-c4ccccc4O)nc3)c3ncn(C4CCCC4)c3n2)CC1 (configuration not stated) : what is it?
-- reply Active

###

Biological target: CDK7/Cyclin H/MNAT1 (Homo sapiens)
Sequence (P51946 whole entry): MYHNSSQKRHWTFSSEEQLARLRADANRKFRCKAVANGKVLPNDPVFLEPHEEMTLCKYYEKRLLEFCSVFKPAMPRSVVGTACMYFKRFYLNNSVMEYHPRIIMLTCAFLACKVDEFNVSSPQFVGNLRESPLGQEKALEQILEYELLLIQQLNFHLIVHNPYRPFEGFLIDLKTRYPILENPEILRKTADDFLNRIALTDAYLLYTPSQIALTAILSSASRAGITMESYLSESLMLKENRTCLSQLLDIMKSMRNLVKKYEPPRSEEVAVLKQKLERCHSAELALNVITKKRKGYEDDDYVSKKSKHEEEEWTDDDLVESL
Sequence (P50613 whole entry): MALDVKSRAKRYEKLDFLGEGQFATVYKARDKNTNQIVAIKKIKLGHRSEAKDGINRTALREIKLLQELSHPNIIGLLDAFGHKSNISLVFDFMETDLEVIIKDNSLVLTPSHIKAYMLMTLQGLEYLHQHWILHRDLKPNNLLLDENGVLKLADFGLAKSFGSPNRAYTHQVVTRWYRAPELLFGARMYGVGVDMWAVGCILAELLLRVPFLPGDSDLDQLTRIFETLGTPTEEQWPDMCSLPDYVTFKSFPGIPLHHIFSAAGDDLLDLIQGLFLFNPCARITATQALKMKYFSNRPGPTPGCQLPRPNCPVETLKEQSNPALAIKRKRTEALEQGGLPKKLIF
Sequence (P51948 whole entry, further chain): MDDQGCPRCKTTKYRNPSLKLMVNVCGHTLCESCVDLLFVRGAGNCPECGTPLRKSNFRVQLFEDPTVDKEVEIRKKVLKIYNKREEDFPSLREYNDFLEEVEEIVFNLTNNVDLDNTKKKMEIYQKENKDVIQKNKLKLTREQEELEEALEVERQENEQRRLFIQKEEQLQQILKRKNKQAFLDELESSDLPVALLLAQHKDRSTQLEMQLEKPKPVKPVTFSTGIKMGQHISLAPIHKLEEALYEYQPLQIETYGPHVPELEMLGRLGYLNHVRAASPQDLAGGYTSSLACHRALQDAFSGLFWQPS
Test: Inhibition of CDK7/Cyclin-H/MAT 1 (unknown origin) using (YSPTSPS)2KK peptide as substrate
Assay Readout: pIC50
Lab note — pIC50 values are minus log10 of concentrations in M.

-- ask # value lookup — system CDK7/Cyclin H/MNAT1 (Homo sapiens), readout pIC50, item NC1CCC(Nc2nc(NCc3ccc(-c4ccccc4O)nc3)c3ncn(C4CCCC4)c3n2)CC1 (stereo unspecified)
-- reply 6.51

###

Attribute: pIC50
Molecular target: Cyclin-dependent kinase 2/cyclin E1 (Homo sapiens, UniProt P24941)
Assay: Inhibition of human recombinant CDK2/Cyclin E expressed in baculovirus infected sf9 cells using histone H1 as substrate
Lab note — pIC50 values are minus log10 of concentrations in M.

- Compound: "COc1ccccc1-c1ccc(CNc2nc(NC3CCC(N)CC3)nc3c2ncn3C2CCCC2)cc1 (stereo not given)"
  Assay System: "Cyclin-dependent kinase 2/cyclin E1 (Homo sapiens, UniProt P24941)"
  pIC50: 7.48
- Compound: "NC1CCC(Nc2nc(NCc3ccc(-c4ccco4)cc3)c3ncn(C4CCCC4)c3n2)CC1 (stereo not given)"
  Assay System: "Cyclin-dependent kinase 2/cyclin E1 (Homo sapiens, UniProt P24941)"
  pIC50: 7.94

-- ask Reported pIC50 for CC(C)(O)CNc1nc(NCc2ccc(-c3ccco3)cc2)c2ncn(C3CCCC3)c2n1 : what is it?
-- reply 6.32

-- ask Reported pIC50 for NC1CCC(Nc2nc(NCc3ccc(-c4ccsc4)nc3)c3ncn(C4CCCC4)c3n2)CC1 (stereo not given) : what is it?
-- reply 7.74

-- ask Reported pIC50 for NC1CCC(Nc2nc(NCc3cc(Cl)ccc3O)c3ncn(C4CCCC4)c3n2)CC1 (stereo not given) : what is it?
-- reply 8.10

-- ask Reported pIC50 for NC1CCC(Nc2nc(NCc3ccc(-c4cccc(F)c4)cc3)c3ncn(C4CCCC4)c3n2)CC1 (stereo not given) : what is it?
-- reply 7.47

###

Attribute: pIC50
Tested on: MCF7
Test: Cytotoxicity against human MCF7 cells assessed as growth inhibition after 72 hrs by calcein AM staining-based fluoroscence assay
Type: functional, cell-based
Conditions: MCF7, 72 h
Lab note — pIC50 values are minus log10 of concentrations in M.

For orientation, consider the following solved cases.
- Compound: "OC1CCC(Nc2nc(NCc3ccc(-c4ccco4)nc3)c3ncn(C4CCCC4)c3n2)CC1 (centres undefined)"
  pIC50: 6.41
- Compound: "NC1CCC(Nc2nc(NCc3ccc(-c4cccs4)nc3)c3ncn(C4CCCC4)c3n2)CC1 (centres undefined)"
  pIC50: 7.04
- Compound: "CC[C@H](CO)Nc1nc(NCc2ccccc2)c2ncn(C(C)C)c2n1"
  pIC50: 4.91
- Compound: "NC1CCC(Nc2nc(NCc3ccc(-c4cccc(F)c4)nc3)c3ncn(C4CCCC4)c3n2)CC1 (centres undefined)"
  pIC50: 7.48
- Compound: "NC1CCC(Nc2nc(NCc3ccc(-c4ccsc4)nc3)c3ncn(C4CCCC4)c3n2)CC1 (centres undefined)"
  pIC50: 7.00
- Compound: "NC1CCC(Nc2nc(NCc3ccc(-c4ccccc4O)nc3)c3ncn(C4CCCC4)c3n2)CC1 (centres undefined)"
  pIC50: 7.74
- Compound: "NC1CCC(Nc2nc(NCc3ccc(-c4ccsc4)cc3)c3ncn(C4CCCC4)c3n2)CC1 (centres undefined)"
  pIC50: 6.84
- Compound: "CC(C)(O)CNc1nc(NCc2ccc(-c3ccco3)cc2)c2ncn(C3CCCC3)c2n1"
  pIC50: 4.82

Lab note: next compound to report on.
-- ask Reported pIC50 for NC1CCC(Nc2nc(NCc3ccc(-c4ccco4)cc3)c3ncn(C4CCCC4)c3n2)CC1 (centres undefined) : what is it?
-- reply 7.07

###

System: MCF7
Test: Cytotoxicity against human MCF7 cells assessed as growth inhibition after 72 hrs by calcein AM staining-based fluoroscence assay
Type: functional, cell-based
Details: MCF7, 72 h
pIC50: −log10 of the molar value.
Threshold rule: pIC50 greater than or equal to 6 is Yes; below that, No.

-- ask Quick check: does NC1CCC(Nc2nc(NCc3ccc(-c4ccccc4O)cc3)c3ncn(C4CCCC4)c3n2)CC1 (stereo not given) have pIC50 greater than or equal to 6?
-- reply No

###

Test system: G-361
Assay: Induction of apoptosis in human G361 cells assessed as induction of caspase-7 clevage at 300 nM after 24 hrs by immunoblotting analysis
Type: functional, cell-based
Active and inactive are the calls of the source. The calls are words filed in the database; no cut-off is given here.
Assay Readout: Activity

For orientation, consider the following solved cases.
- Molecule: "NC1CCC(Nc2nc(NCc3ccc(-c4cccc(F)c4)nc3)c3ncn(C4CCCC4)c3n2)CC1 (configuration not stated)"
  Assay Readout: "Activity"
  Result: "Active"
- Molecule: "NC1CCC(Nc2nc(NCc3ccc(-c4ccsc4)nc3)c3ncn(C4CCCC4)c3n2)CC1 (configuration not stated)"
  Assay Readout: "Activity"
  Result: "Active"
- Molecule: "NC1CCC(Nc2nc(NCc3ccc(-n4cccn4)cc3)c3ncn(C4CCCC4)c3n2)CC1 (configuration not stated)"
  Assay Readout: "Activity"
  Result: "Active"
- Molecule: "NC1CCC(Nc2nc(NCc3ccc(-c4ccoc4)nc3)c3ncn(C4CCCC4)c3n2)CC1 (configuration not stated)"
  Assay Readout: "Activity"
  Result: "Active"
- Molecule: "NC1CCC(Nc2nc(NCc3ccc(-c4ccco4)nc3)c3ncn(C4CCCC4)c3n2)CC1 (configuration not stated)"
  Assay Readout: "Activity"
  Result: "Active"
- Molecule: "NC1CCC(Nc2nc(NCc3ccc(-c4cccs4)nc3)c3ncn(C4CCCC4)c3n2)CC1 (configuration not stated)"
  Assay Readout: "Activity"
  Result: "Active"

Lab note: next molecule to report on.
-- ask # value lookup — system G-361, readout Activity, item NC1CCC(Nc2nc(NCc3ccc(-c4ccccc4O)nc3)c3ncn(C4CCCC4)c3n2)CC1 (configuration not stated)
-- reply Active
